- experimentDescription: log P determination by HPLC on reversed-phase columns (C 18), analogously to OECD Guideline 117
- Type: physicochemical
- experimentalSetup: LC-MS in the neutral range, pH 7.8, 0.001 molar aqueous ammonium hydrogencarbonate / acetonitrile, HPLC reversed-phase C 18
experimentalEndpoint: logP (neutral)

> print(dat)
                            structuresmiles  experimentalendpoint  measuredresult
1  Cc1cc(F)c(N2C(=O)CN(Cc3ccccc3)C2=O)cc1SCC(F)(F)F        logP (neutral)            3.48
2  CCn1c(=O)n(C(C)(C)C)c(=O)n1-c1cc(SCC(F)(F)F)c(C)cc1F        logP (neutral)            4.16
3  Cc1ccc(-n2c(=O)n(C)c(=O)n2Cc2ccccc2)cc1SCC(F)(F)F        logP (neutral)            3.56
4  Cc1cc(F)c(-n2c(=O)n(C3CC3)c(=O)n2CC(F)(F)F)cc1SCC(F)(F)F        logP (neutral)            3.43

Reference source for all entries: patent US9981928B2
